// reported inhibition per item
# Subject of test: RAF1 (human)
# Method summary: Caliper, Mobility shift assay off-chip
# Run conditions: compound 0.1 µM
Numbers only here, please. The scale is %.

Compound | Subject of test | Measure | Unit label | Result number
Cn1cc(-c2cnc3ccc4ccc(CS(=O)(=O)CCc5ccccn5)cc4c(=O)c3c2)cn1 | RAF1 (human) | inhibition | % | 5.1
Cn1cc(-c2cnc3ccc4ccc(CS(=O)(=O)NC5CCCCC5)cc4c(=O)c3c2)cn1 | RAF1 (human) | inhibition | % | 4.5
O=c1c2cc(CS(=O)(=O)NCc3ccccn3)ccc2ccc2ncc(C3CCNCC3)cc12 | RAF1 (human) | inhibition | % | 0.6
CN(c1ccc2ccc3ncc(-c4cnn(C)c4)cc3c(=O)c2c1)S(=O)(=O)NCc1ccccn1 | RAF1 (human) | inhibition | % | -6.5
Cn1cc(-c2cnc3ccc4ccc(CS(=O)(=O)NCC5CCCCN5)cc4c(=O)c3c2)cn1 (configuration not stated) | RAF1 (human) | inhibition | % | 5.4
O=C(CCc1ccc2ccc3ncc(C4CCNCC4)cc3c(=O)c2c1)NCc1ccccn1 | RAF1 (human) | inhibition | % | 3.2

Next compound, inhibition to be filled in.
Fill in: inhibition of Cn1cc(-c2cnc3ccc4ccc(CS(N)(=O)=O)cc4c(=O)c3c2)cn1 is ___
6.2

====

# Tested on: ABL1 (human), P00519 [Q252H]
# Method summary: Caliper, Mobility shift assay off-chip
# Run conditions: compound 1.0 µM
Measure: inhibition

// known answers, use as guide
Structure string | Subject of test | Result
O=C(CCc1ccc2ccc3ncc(C4CCNCC4)cc3c(=O)c2c1)NCc1ccccn1 | ABL1 (human), P00519 [Q252H] | 8.1%
CN(c1ccc2ccc3ncc(-c4cnn(C)c4)cc3c(=O)c2c1)S(=O)(=O)NCc1ccccn1 | ABL1 (human), P00519 [Q252H] | 51.8%
Cn1cc(-c2cnc3ccc4ccc(CS(N)(=O)=O)cc4c(=O)c3c2)cn1 | ABL1 (human), P00519 [Q252H] | 24.9%

Fill in: inhibition of Cn1cc(-c2cnc3ccc4ccc(CS(=O)(=O)CCc5ccccn5)cc4c(=O)c3c2)cn1 is ___
9.3%

====

# Subject of test: PRKCH (human)
# Method summary: Caliper, Mobility shift assay off-chip
# Run conditions: compound 1.0 µM
// reported inhibition per item
Form entry: enter the amount, then its unit.

// known answers, use as guide
Molecule | inhibition
Cn1cc(-c2cnc3ccc4ccc(CS(=O)(=O)NCC5CCCCN5)cc4c(=O)c3c2)cn1 (stereo not given) | 1.4%
CN(c1ccc2ccc3ncc(-c4cnn(C)c4)cc3c(=O)c2c1)S(=O)(=O)NCc1ccccn1 | 3.2%
Cn1cc(-c2cnc3ccc4ccc(CS(N)(=O)=O)cc4c(=O)c3c2)cn1 | 0.2%
O=C(CCc1ccc2ccc3ncc(C4CCNCC4)cc3c(=O)c2c1)NCc1ccccn1 | -8.7%

Fill in: inhibition of Cn1cc(-c2cnc3ccc4ccc(CS(=O)(=O)CCc5ccccn5)cc4c(=O)c3c2)cn1 is ___
-5.7%

====

// reported inhibition per item
# Subject of test: SGK3 (human) (UniProt Q96BR1)
# Sequence (Q96BR1 whole entry, looked up): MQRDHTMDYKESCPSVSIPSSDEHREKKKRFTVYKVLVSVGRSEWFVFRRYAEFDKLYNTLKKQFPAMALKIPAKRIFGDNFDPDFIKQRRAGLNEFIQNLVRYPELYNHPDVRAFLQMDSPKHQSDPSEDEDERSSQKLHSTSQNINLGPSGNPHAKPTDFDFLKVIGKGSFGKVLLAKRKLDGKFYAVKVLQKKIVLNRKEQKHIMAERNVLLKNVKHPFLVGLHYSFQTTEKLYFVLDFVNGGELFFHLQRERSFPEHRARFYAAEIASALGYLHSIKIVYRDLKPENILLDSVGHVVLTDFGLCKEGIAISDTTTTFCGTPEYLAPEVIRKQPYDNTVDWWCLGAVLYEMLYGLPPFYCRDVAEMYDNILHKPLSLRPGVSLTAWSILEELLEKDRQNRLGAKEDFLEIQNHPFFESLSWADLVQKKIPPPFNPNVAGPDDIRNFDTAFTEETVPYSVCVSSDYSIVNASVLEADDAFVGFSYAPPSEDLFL
# Method summary: Caliper, Mobility shift assay off-chip
# Run conditions: compound 1.0 µM
Numbers only here, please. The scale is %.

// known answers, use as guide
Compound | Unit label | inhibition
O=C(CCc1ccc2ccc3ncc(C4CCNCC4)cc3c(=O)c2c1)NCc1ccccn1 | % | 1
Cn1cc(-c2cnc3ccc4ccc(CS(=O)(=O)NCC5CCCCN5)cc4c(=O)c3c2)cn1 (stereo not given) | % | -0.7
Cn1cc(-c2cnc3ccc4ccc(CS(N)(=O)=O)cc4c(=O)c3c2)cn1 | % | 3.9
CN(c1ccc2ccc3ncc(-c4cnn(C)c4)cc3c(=O)c2c1)S(=O)(=O)NCc1ccccn1 | % | 1.1

Next compound, inhibition to be filled in.
Fill in: inhibition of Cn1cc(-c2cnc3ccc4ccc(CS(=O)(=O)CCc5ccccn5)cc4c(=O)c3c2)cn1 is ___
6.2

====

# Tested on: FLT3 (human), P36888 [D835Y]
# Method summary: Caliper, Mobility shift assay off-chip
# Run conditions: compound 1.0 µM
Measure: inhibition (%)
Numbers only here, please. The scale is %.

// known answers, use as guide
Structure string | Measure | Unit label | Result number
O=C(CCc1ccc2ccc3ncc(C4CCNCC4)cc3c(=O)c2c1)NCc1ccccn1 | inhibition | % | 3.4
Cn1cc(-c2cnc3ccc4ccc(CS(=O)(=O)CCc5ccccn5)cc4c(=O)c3c2)cn1 | inhibition | % | 13.3
CN(c1ccc2ccc3ncc(-c4cnn(C)c4)cc3c(=O)c2c1)S(=O)(=O)NCc1ccccn1 | inhibition | % | 86.5

Next compound, inhibition to be filled in.
Fill in: inhibition of Cn1cc(-c2cnc3ccc4ccc(CS(N)(=O)=O)cc4c(=O)c3c2)cn1 is ___
73.7

====

# Subject of test: FER (human)
# Method summary: Caliper, Mobility shift assay off-chip
# Run conditions: compound 0.1 µM
// reported inhibition per item

// known answers, use as guide
Compound | Result
Cn1cc(-c2cnc3ccc4ccc(CS(=O)(=O)CCc5ccccn5)cc4c(=O)c3c2)cn1 | -6.8%
O=C(CCc1ccc2ccc3ncc(C4CCNCC4)cc3c(=O)c2c1)NCc1ccccn1 | -14.2%
Cn1cc(-c2cnc3ccc4ccc(CS(=O)(=O)NC5CCCCC5)cc4c(=O)c3c2)cn1 | 0.2%
Cn1cc(-c2cnc3ccc4ccc(CS(=O)(=O)NCC5CCCCN5)cc4c(=O)c3c2)cn1 (configuration not stated) | 1.2%
Cn1cc(-c2cnc3ccc4ccc(CS(N)(=O)=O)cc4c(=O)c3c2)cn1 | -53.2%
CN(c1ccc2ccc3ncc(-c4cnn(C)c4)cc3c(=O)c2c1)S(=O)(=O)NCc1ccccn1 | 24.1%

Next compound, inhibition to be filled in.
Write down the reported inhibition of O=c1c2cc(CS(=O)(=O)NCc3ccccn3)ccc2ccc2ncc(C3CCNCC3)cc12 , test system: FER (human).
0.8%

====

# Subject of test: SGK1 (human)
# Method summary: Caliper, Mobility shift assay off-chip
# Run conditions: compound 1.0 µM
Measure: inhibition (%)
Numbers only here, please. The scale is %.

// known answers, use as guide
Molecule | Result number
CN(c1ccc2ccc3ncc(-c4cnn(C)c4)cc3c(=O)c2c1)S(=O)(=O)NCc1ccccn1 | 6.4
O=C(CCc1ccc2ccc3ncc(C4CCNCC4)cc3c(=O)c2c1)NCc1ccccn1 | -6
Cn1cc(-c2cnc3ccc4ccc(CS(=O)(=O)CCc5ccccn5)cc4c(=O)c3c2)cn1 | -6.4
Cn1cc(-c2cnc3ccc4ccc(CS(N)(=O)=O)cc4c(=O)c3c2)cn1 | 11.5

Next molecule, inhibition to be filled in.
Write down the reported inhibition of Cn1cc(-c2cnc3ccc4ccc(CS(=O)(=O)NCC5CCCCN5)cc4c(=O)c3c2)cn1 (stereo not given) , test system: SGK1 (human).
9.6

====

// reported inhibition per item
# Subject of test: MARK2 (human)
# Method summary: Caliper, Mobility shift assay off-chip
# Run conditions: compound 1.0 µM
Form entry: enter the amount, then its unit.

// known answers, use as guide
Compound | inhibition
Cn1cc(-c2cnc3ccc4ccc(CS(=O)(=O)NCC5CCCCN5)cc4c(=O)c3c2)cn1 (centres undefined) | 2.4%
O=C(CCc1ccc2ccc3ncc(C4CCNCC4)cc3c(=O)c2c1)NCc1ccccn1 | -1.8%
Cn1cc(-c2cnc3ccc4ccc(CS(=O)(=O)CCc5ccccn5)cc4c(=O)c3c2)cn1 | 6.5%

Next compound, inhibition to be filled in.
Write down the reported inhibition of CN(c1ccc2ccc3ncc(-c4cnn(C)c4)cc3c(=O)c2c1)S(=O)(=O)NCc1ccccn1 , test system: MARK2 (human).
12.6%

====

# Subject of test: FGFR2 (human) (UniProt P21802)
# Sequence (P21802 whole entry, looked up): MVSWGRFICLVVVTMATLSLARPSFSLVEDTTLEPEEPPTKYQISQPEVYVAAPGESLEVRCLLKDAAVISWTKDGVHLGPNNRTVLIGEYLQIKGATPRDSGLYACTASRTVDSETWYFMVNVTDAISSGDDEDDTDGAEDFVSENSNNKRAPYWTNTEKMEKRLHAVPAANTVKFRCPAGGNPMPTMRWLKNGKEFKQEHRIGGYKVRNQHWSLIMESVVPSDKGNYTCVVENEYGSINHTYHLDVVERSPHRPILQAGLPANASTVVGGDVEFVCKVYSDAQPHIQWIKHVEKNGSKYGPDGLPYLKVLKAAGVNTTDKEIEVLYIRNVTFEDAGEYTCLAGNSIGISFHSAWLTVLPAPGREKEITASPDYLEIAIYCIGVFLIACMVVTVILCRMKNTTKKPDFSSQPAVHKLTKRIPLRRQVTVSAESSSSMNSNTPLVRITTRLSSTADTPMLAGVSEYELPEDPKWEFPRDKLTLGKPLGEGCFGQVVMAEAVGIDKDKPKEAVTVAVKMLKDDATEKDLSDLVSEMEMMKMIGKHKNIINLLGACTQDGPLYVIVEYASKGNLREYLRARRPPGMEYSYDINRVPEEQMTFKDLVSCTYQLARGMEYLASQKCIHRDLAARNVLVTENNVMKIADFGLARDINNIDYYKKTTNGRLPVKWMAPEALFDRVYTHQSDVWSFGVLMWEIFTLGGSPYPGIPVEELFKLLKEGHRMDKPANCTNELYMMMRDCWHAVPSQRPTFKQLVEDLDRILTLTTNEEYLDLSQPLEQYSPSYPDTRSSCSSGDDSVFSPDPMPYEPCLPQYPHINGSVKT
# Method summary: Caliper, Mobility shift assay off-chip
# Run conditions: compound 1.0 µM
Measure: inhibition (%)
Numbers only here, please. The scale is %.

Structure string | inhibition / %
CN(c1ccc2ccc3ncc(-c4cnn(C)c4)cc3c(=O)c2c1)S(=O)(=O)NCc1ccccn1 | 76.6

Fill in: inhibition of O=C(CCc1ccc2ccc3ncc(C4CCNCC4)cc3c(=O)c2c1)NCc1ccccn1 is ___
7.8

// same read-out, input: Cn1cc(-c2cnc3ccc4ccc(CS(=O)(=O)CCc5ccccn5)cc4c(=O)c3c2)cn1
64.7

// same read-out, input: Cn1cc(-c2cnc3ccc4ccc(CS(N)(=O)=O)cc4c(=O)c3c2)cn1
47.9

====

# Subject of test: RPS6KA2 KD1 KD2 (human)
# Method summary: Caliper, Mobility shift assay off-chip
# Run conditions: compound 1.0 µM
// reported inhibition per item
Numbers only here, please. The scale is %.

// known answers, use as guide
Molecule | Measure | Unit label | Result number
Cn1cc(-c2cnc3ccc4ccc(CS(=O)(=O)NCC5CCCCN5)cc4c(=O)c3c2)cn1 (stereo not given) | inhibition | % | -5.3
O=C(CCc1ccc2ccc3ncc(C4CCNCC4)cc3c(=O)c2c1)NCc1ccccn1 | inhibition | % | -2.5

Fill in: inhibition of CN(c1ccc2ccc3ncc(-c4cnn(C)c4)cc3c(=O)c2c1)S(=O)(=O)NCc1ccccn1 is ___
9.6

// same read-out, input: Cn1cc(-c2cnc3ccc4ccc(CS(N)(=O)=O)cc4c(=O)c3c2)cn1
9

// same read-out, input: Cn1cc(-c2cnc3ccc4ccc(CS(=O)(=O)CCc5ccccn5)cc4c(=O)c3c2)cn1
8.8
